# credit: PubChem BioAssay AID1845208

# Tested on: NCI-H196 SCLC complex tumor spheroid viability
# assay-overview: Anticancer human tumor NCI-H196 cell line growth inhibition;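 note: spheroids exposed to compounds for 7 days before readout; 100% = DMSO vehicle control wells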
# run-conditions: second compound 0.03 µM; first compound 3 µM; hits give low values
Exercise: state measured viability, T/C for each of the compounds provided.
Number only, in %; omit the unit.

Query: # query: viability, T/C of entry CNCc1ccc(-c2cc(-c3nc(-c4ccc(S(=O)(=O)C(C)C)cc4)cnc3N)on2)cc1 + CC[C@@]1(O)C(=O)OCc2c1cc1n(c2=O)Cc2cc3c(CN(C)C)c(O)ccc3nc2-1
Reply: 81.6

Query: What value of viability, T/C has been reported for the following compound? Cn1ncnc1[C@H]1c2n[nH]c(=O)c3cc(F)cc(c23)N[C@@H]1c1ccc(F)cc1 + CC[C@@]1(O)C(=O)OCc2c1cc1n(c2=O)Cc2cc3c(CN(C)C)c(O)ccc3nc2-1
Reply: 97.4

Query: Which viability, T/C is listed for Cc1sc2c(c1C)C(c1ccc(Cl)cc1)=NC(CC(=O)Nc1ccc(O)cc1)c1nnc(C)n1-2 (centres undefined) + CC[C@@]1(O)C(=O)OCc2c1cc1n(c2=O)Cc2cc3c(CN(C)C)c(O)ccc3nc2-1 ?
Reply: 29.9

Query: Which viability, T/C value belongs to O=C(c1cc(Cc2n[nH]c(=O)c3ccccc23)ccc1F)N1CCN(C(=O)C2CC2)CC1 + CC[C@@]1(O)C(=O)OCc2c1cc1n(c2=O)Cc2cc3c(CN(C)C)c(O)ccc3nc2-1 ?
Reply: 103

* * *

# Tested on: NCI-H196 SCLC complex tumor spheroid viability
# assay-overview: Anticancer human tumor NCI-H196 cell line growth inhibition;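 note: spheroids exposed to compounds for 7 days before readout; 100% = DMSO vehicle control wells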
# run-conditions: second compound 100 µM; first compound 3 µM; hits give low values
Please go through the items and note down their viability, T/C.

Query: Reported viability, T/C for O=C(c1cc(Cc2n[nH]c(=O)c3ccccc23)ccc1F)N1CCN(C(=O)C2CC2)CC1 + Cn1nnc2c(C(N)=O)ncn2c1=O : what is it?
Reply: 87.6%

Query: Name the reported viability, T/C value associated with the compound Cn1ncnc1[C@H]1c2n[nH]c(=O)c3cc(F)cc(c23)N[C@@H]1c1ccc(F)cc1 + Cn1nnc2c(C(N)=O)ncn2c1=O
Reply: 89.5%

Query: Look up viability, T/C for this compound: Cc1sc2c(c1C)C(c1ccc(Cl)cc1)=NC(CC(=O)Nc1ccc(O)cc1)c1nnc(C)n1-2 (centres undefined) + Cn1nnc2c(C(N)=O)ncn2c1=O
Reply: 46.4%

Query: Item under review: CNCc1ccc(-c2cc(-c3nc(-c4ccc(S(=O)(=O)C(C)C)cc4)cnc3N)on2)cc1 + Cn1nnc2c(C(N)=O)ncn2c1=O . Reported viability, T/C?
Reply: 84.3%

* * *

Would you kindly list viability, T/C for each of these compounds?
# Tested on: NCI-H196 SCLC complex tumor spheroid viability
# assay-overview: Anticancer human tumor NCI-H196 cell line growth inhibition;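 note: spheroids exposed to compounds for 7 days before readout; 100% = DMSO vehicle control wells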
# run-conditions: second compound 0.0003 µM; first compound 10 µM; hits give low values
Form entry: value (%) — number only.

Query: I am curious: what viability, T/C value has been reported for CC(C)n1c(=O)n(C)c2cnc3cc(F)c(-c4ccc(OCCCN5CCCCC5)nc4)cc3c21 + COc1cc2c(cc1O)CCNC21CSC2c3c(OC(C)=O)c(C)c4c(c3C(COC1=O)N1C(O)C3Cc5cc(C)c(OC)c(O)c5C(C21)N3C)OCO4 ?
Reply: 104

Query: What measured viability, T/C goes with [2H]c1nc(C)nc([2H])c1-c1cc(NC[C@@H](C)c2cccc3c(C(=O)NC)ccnc23)ncn1 + COc1cc2c(cc1O)CCNC21CSC2c3c(OC(C)=O)c(C)c4c(c3C(COC1=O)N1C(O)C3Cc5cc(C)c(OC)c(O)c5C(C21)N3C)OCO4 ?
Reply: 105

Query: Please give the measured viability, T/C for this compound: CC1COCCN1c1cc(-c2ccnn2C)c2ccnc(-c3ccn[nH]3)c2n1 (stereo unspecified) + COc1cc2c(cc1O)CCNC21CSC2c3c(OC(C)=O)c(C)c4c(c3C(COC1=O)N1C(O)C3Cc5cc(C)c(OC)c(O)c5C(C21)N3C)OCO4
Reply: 42.5

Query: Request the reported viability, T/C associated with COc1cc(C)[nH]c(=O)c1CN1CCc2c(Cl)cc(C(OC)C3COC3)c(Cl)c2C1=O (stereo unspecified) + COc1cc2c(cc1O)CCNC21CSC2c3c(OC(C)=O)c(C)c4c(c3C(COC1=O)N1C(O)C3Cc5cc(C)c(OC)c(O)c5C(C21)N3C)OCO4
Reply: 97.8

Query: Entry under review: Cc1cc(C)c(CNC(=O)c2cc(-c3ccc(CN4CCOCC4)cc3)cc3c2cnn3C2CCCC2)c(=O)[nH]1 + COc1cc2c(cc1O)CCNC21CSC2c3c(OC(C)=O)c(C)c4c(c3C(COC1=O)N1C(O)C3Cc5cc(C)c(OC)c(O)c5C(C21)N3C)OCO4 . Reported viability, T/C?
Reply: 104

Query: Param item = COc1ccc([C@@H](O)c2cc(-c3ncnc4cc(N5CCOCC5)ccc34)c(F)cc2Cl)nn1 + COc1cc2c(cc1O)CCNC21CSC2c3c(OC(C)=O)c(C)c4c(c3C(COC1=O)N1C(O)C3Cc5cc(C)c(OC)c(O)c5C(C21)N3C)OCO4 ; retrieve measured viability, T/C.
Reply: 32.5
